Data provenance: the RNAGym collection of RNA variant scans (doi:10.1073/pnas.2313332121)

B1: TPR 5TU (parent)
chain: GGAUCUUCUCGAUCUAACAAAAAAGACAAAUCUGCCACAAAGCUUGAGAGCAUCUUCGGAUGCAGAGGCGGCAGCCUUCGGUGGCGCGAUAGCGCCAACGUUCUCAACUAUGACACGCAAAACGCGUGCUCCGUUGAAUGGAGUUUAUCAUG

# Variants of: B1
# run_description: polymerase ribozyme fitness, log enrichment relative to wild type (log ratio); higher = more active; in vitro selection for triplet polymerase activity
This sample holds only a part of the variants without activity.
result_type: polymerase ribozyme fitness (log ratio)
Write the number on its own, no unit after it.

// worked examples, polymerase ribozyme fitness (log ratio) included
G70A G141A	-3.46
G83A G141U	-0.659
A22C A23C C36G C79A C125A G140U	-3.55

Consider now this further variant.
## Input Identify polymerase ribozyme fitness (log ratio) associated with the variant C96G A97G
## Output -2.61
